Test: Sensory evaluation of aqueous solution V containing 1-octen-3-ol 10 ppb: off-flavor intensity and masking component intensity
Conditions: 10 ppb added, average panel score
Procedure: In ion-exchanged water, each degradation component was added to achieve the concentrations listed in Table 1, and aqueous solutions I to VI containing these degradation components were prepared. […] Also, the intensity of the masking components (impact on the flavor of the food and/or beverage itself) was absolutely evaluated according to the following evaluation criteria. […]
Measured Off-Flavor Intensity, listed per entry.
Enter the number alone.

Illustrative cases are given below, each with its answer.
molecule="CC(O)CC(=O)OC1CC(C)CCC1C(C)C (stereo not drawn) [menthyl 3-hydroxybutyrate]" observed_value=2.9
molecule="CC1CCC(C(C)C)C(OCC(O)CO)C1 (stereo not drawn)" observed_value=2.6
molecule="CC1CCC(C(C)C)C(OCCO)C1 (stereo not drawn)" observed_value=2.6
molecule=CC(C)C=C(C=O)c1ccccc1 observed_value=1.8
molecule="C=CC(C)(O)CCC=C(C)CCC=C(C)C (stereo not drawn)" observed_value=2.5

Ask: Provide Off-Flavor Intensity value for the following molecule: CC(=O)/C(C)=C/C1C(C)=CCCC1(C)C (stereo not drawn)
Result: 1.5

###

Assay: Sensory evaluation of aqueous solution I containing (E)-2-nonenal 1 ppb: off-flavor intensity and masking component intensity
Details: 50 ppm added, average panel score
Measured Off-Flavor Intensity, listed per entry.
Enter the number alone.

Illustrative cases are given below, each with its answer.
compound="CC(C)C=C(C=O)c1ccccc1 [4-methyl-2-phenyl-2-pentenal]" observed_value=0.3
compound="CC1CCC(C(C)C)C(OCCO)C1 (stereo not shown) [2-menthoxyethanol]" observed_value=1.4
compound="CC1CCC(C(C)C)C(OCC(O)CO)C1 (stereo not shown) [3-menthoxypropan-1,2-diol]" observed_value=1.9

Ask: Provide Off-Flavor Intensity value for the following compound: CC(O)CC(=O)OC1CC(C)CCC1C(C)C (stereo not shown) [menthyl 3-hydroxybutyrate]
Result: 1.4

###

Assay: Sensory evaluation of aqueous solution IV containing 1,5-octadien-3-one 100 ppt: off-flavor intensity and masking component intensity
Conditions: 1 ppm added; aqueous solution IV, 1,5-octadien-3-one 100 ppt; average score 0-4
Measured Off-Flavor Intensity, listed per entry.
Supply the numeric figure in points, leaving out any unit text.

Illustrative cases are given below, each with its answer.
molecule="C=CC(C)(CCC=C(C)C)OC(=O)CCC (stereo not shown) [Linalyl Butyrate, linalyl butyrate]" observed_value=0.9
molecule=CC(=O)/C=C/C1=C(C)CCCC1(C)C observed_value=1.0
molecule=C=C(C)[C@@H]1CCC2=CC(=O)C[C@@H](C)[C@]2(C)C1 observed_value=2.0
molecule="CCC(=O)/C=C/C1C(C)=CCCC1(C)C (stereo not shown)" observed_value=0.4
molecule=CCCC(=O)C(C)=O observed_value=2.1
molecule=CCCCCCCC/C=C\CCCCCCCC(=O)O observed_value=2.0

Pending molecule:
Ask: Provide Off-Flavor Intensity value for the following molecule: CC(=O)/C=C/C1C(C)=CCCC1(C)C (stereo not shown)
Result: 1.0

###

Assay: Sensory evaluation of aqueous solution I containing (E)-2-nonenal 1 ppb: off-flavor intensity and masking component intensity
Details: 0.01 ppt added, (E)-2-nonenal 1 ppb, average score 0-4
Measured Off-Flavor Intensity, listed per entry.
Supply the numeric figure in points, leaving out any unit text.

compound=C/C=C/C(=O)C1=C(C)C=CCC1(C)C readout_name="Off-Flavor Intensity" observed_value=3.5
compound=O=C1CCCCCCCCCCCC(=O)OCCO1 readout_name="Off-Flavor Intensity" observed_value=3.3
compound=CC(=O)/C=C/C1=C(C)CCCC1(C)C readout_name="Off-Flavor Intensity" observed_value=3.4

Pending compound:
Ask: Provide Off-Flavor Intensity value for the following compound: CCC(=O)/C=C/C1C(C)=CCCC1(C)C (stereo not shown)
Result: 3.9

###

Test: Sensory evaluation of aqueous solution V containing 1-octen-3-ol 10 ppb: off-flavor intensity and masking component intensity
Conditions: 1 ppb added, average panel score
readout-name: Masking Component Intensity
Enter the number alone.

Illustrative cases are given below, each with its answer.
compound="CC(O)CC(=O)OC1CC(C)CCC1C(C)C (stereo not drawn) [menthyl 3-hydroxybutyrate]" readout_name="Masking Component Intensity" observed_value=0.4
compound="CC(=O)/C(C)=C/C1C(C)=CCCC1(C)C (stereo not drawn)" readout_name="Masking Component Intensity" observed_value=2.3
compound="CC1CCC(C(C)C)C(OCCO)C1 (stereo not drawn)" readout_name="Masking Component Intensity" observed_value=0.4

Ask: Provide Masking Component Intensity value for the following compound: CC(C)C=C(C=O)c1ccccc1
Result: 0.8

Ask: Provide Masking Component Intensity value for the following compound: C=CC(C)(O)CCC=C(C)CCC=C(C)C (stereo not drawn)
Result: 0.6

Ask: Provide Masking Component Intensity value for the following compound: CC1CCC(C(C)C)C(OCC(O)CO)C1 (stereo not drawn)
Result: 0.3

###

Assay: Sensory evaluation of aqueous solution VI containing 1,5-octadien-3-ol 10 ppb: off-flavor intensity and masking component intensity
Details: aqueous solution VI; 100 ppb added; average panel score
# strict inequality: Off-Flavor Intensity < 2 yields satisfied, everything else yields not satisfied

compound="CC(=O)/C(C)=C/C1C(C)=CCCC1(C)C (stereo not drawn) [γ-methyl ionone]" qualitative_label=satisfied
compound="CC(C)C=C(C=O)c1ccccc1 [4-methyl-2-phenyl-2-pentenal]" qualitative_label=satisfied
compound="CC(O)CC(=O)OC1CC(C)CCC1C(C)C (stereo not drawn) [menthyl 3-hydroxybutyrate]" qualitative_label="not satisfied"
compound="C=CC(C)(O)CCC=C(C)CCC=C(C)C (stereo not drawn) [nerolidol]" qualitative_label="not satisfied"
compound="CC1CCC(C(C)C)C(OCC(O)CO)C1 (stereo not drawn) [3-menthoxypropan-1,2-diol]" qualitative_label="not satisfied"

Now consider a different compound.
Ask: Does this compound meet the criterion Off-Flavor Intensity < 2? CC1CCC(C(C)C)C(OCCO)C1 (stereo not drawn) [2-menthoxyethanol]
Result: not satisfied

###

Measured Off-Flavor Intensity, listed per entry.
Test: Sensory evaluation of aqueous solution III containing 1-octen-3-one 1 ppb: off-flavor intensity and masking component intensity
Details: 0.1 ppt added, 1-octen-3-one 1 ppb, average score 0-4
Supply the numeric figure in points, leaving out any unit text.

molecule="CC(=O)/C=C/C1=C(C)CCCC1(C)C [β-Ionone, β-ionone]" readout_name="Off-Flavor Intensity" observed_value=3.3
molecule="CCC(=O)/C=C/C1C(C)=CCCC1(C)C (stereo not drawn) [α-Methyl Ionone, α-methyl ionone]" readout_name="Off-Flavor Intensity" observed_value=3.1
molecule="C/C=C/C(=O)C1=C(C)C=CCC1(C)C [β-Damascenone, β-damascenone]" readout_name="Off-Flavor Intensity" observed_value=3.3
molecule="CC(=O)/C=C/C1C(C)=CCCC1(C)C (stereo not drawn) [α-Ionone, α-ionone]" readout_name="Off-Flavor Intensity" observed_value=3.6

Pending molecule:
Ask: Provide Off-Flavor Intensity value for the following molecule: O=C1CCCCCCCCCCCC(=O)OCCO1 [1,4-Dioxacycloheptadecan-5,17-Dione, 1,4-dioxacycloheptadecan-5,17-dione]
Result: 3.0

###

Measured Masking Component Intensity, listed per entry.
Assay: Sensory evaluation of aqueous solution V containing 1-octen-3-ol 10 ppb: off-flavor intensity and masking component intensity
Conditions: 10 ppm added, average panel score
Enter the number alone.

molecule="CC1CCC(C(C)C)C(OCCO)C1 (centres unmarked)" observed_value=2.6
molecule="CC(O)CC(=O)OC1CC(C)CCC1C(C)C (centres unmarked) [menthyl 3-hydroxybutyrate]" observed_value=2.4
molecule="CC1CCC(C(C)C)C(OCC(O)CO)C1 (centres unmarked)" observed_value=2.1
molecule="C=CC(C)(O)CCC=C(C)CCC=C(C)C (centres unmarked)" observed_value=3.9

Pending molecule:
Ask: Provide Masking Component Intensity value for the following molecule: CC(C)C=C(C=O)c1ccccc1
Result: 3.5

###

Assay: Sensory evaluation of aqueous solution I containing (E)-2-nonenal 1 ppb: off-flavor intensity and masking component intensity
Details: 100 ppb added, average panel score
Outcome: true (1) for Off-Flavor Intensity of at least 2; false (0) for anything lower.

// below: answered compounds
compound="CC1CCC(C(C)C)C(OCCO)C1 (stereo not drawn)" qualitative_label="true (1)"
compound="CC(O)CC(=O)OC1CC(C)CCC1C(C)C (stereo not drawn) [menthyl 3-hydroxybutyrate]" qualitative_label="true (1)"
compound=CC(C)C=C(C=O)c1ccccc1 qualitative_label="false (0)"

Ask: Test whether the compound CC(=O)/C(C)=C/C1C(C)=CCCC1(C)C (stereo not drawn) records Off-Flavor Intensity of 2 or higher.
Result: false (0)

Ask: Test whether the compound CC1CCC(C(C)C)C(OCC(O)CO)C1 (stereo not drawn) records Off-Flavor Intensity of 2 or higher.
Result: true (1)

###

Measured Off-Flavor Intensity, listed per entry.
Assay: Sensory evaluation of aqueous solution V containing 1-octen-3-ol 10 ppb: off-flavor intensity and masking component intensity
Details: 10 ppm added, 1-octen-3-ol 10 ppb, average score 0-4
Supply the numeric figure in points, leaving out any unit text.

molecule="CCCCCCCC/C=C\\CCCCCCCC(=O)O [Oleic Acid, oleic acid]" readout_name="Off-Flavor Intensity" observed_value=1.1
molecule="C=C(C)[C@@H]1CCC2=CC(=O)C[C@@H](C)[C@]2(C)C1 [Nootkatone, nootkatone]" readout_name="Off-Flavor Intensity" observed_value=0.5
molecule="CCCC(=O)C(C)=O [2,3-Hexanedione, 2,3-hexanedione]" readout_name="Off-Flavor Intensity" observed_value=0.4

Ask: Provide Off-Flavor Intensity value for the following molecule: CC(=O)/C=C/C1C(C)=CCCC1(C)C (stereo not drawn) [α-Ionone, α-ionone]
Result: 0.0
